Target: Chaperone protein DnaK (Escherichia coli (strain K12))
Experiment: blockers of bacterial DnaK function – luminescence, E. coli K12, primary screen (AID 547);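 note: tested at 10 µM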
Details: DnaK chaperone assay, luminescence read-out; stronger effect = lower value
Out of some 1,300 compounds screened, about 10 (0.8%) were called active. Shown is part of a subset that was picked to be rich in actives.
So I've got a bunch of molecules here, and I need their luminescence values.

Please review the following examples before continuing.
C=Cc1c(C)c2cc3[nH]c(cc4nc(cc5nc(cc1[nH]2)C(C)=C5CCC(=O)O)C(CCC(=O)O)=C4C)c(C)c3C=C | 2e+06 cps (inactive)
NC(CO)C(=O)NNCc1ccc(O)c(O)c1O (stereo not given) | 2.2e+06 cps (inactive)
O=C1N=C(O)CN1/N=C/c1ccc(-c2ccc([N+](=O)[O-])cc2)o1 | 3e+06 cps (inactive)
NC[C@H](O)c1ccc(O)c(O)c1 | 2.6e+06 cps (inactive)

Proceeding to the next molecule to report its luminescence.
Specify luminescence for OC[C@H]1O[C@@H](n2cnc3c(Nc4ccccc4)ncnc32)C(O)[C@H]1O (stereo not given in full) , system Chaperone protein DnaK (Escherichia coli (strain K12)). 2.3e+06 cps (inactive)

----------
Target: Chaperone protein DnaK (Escherichia coli (strain K12))
Assay: blockers of bacterial DnaK function – luminescence, E. coli K12, primary screen (AID 547);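 note: tested at 10 µM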
Details: DnaK chaperone assay, luminescence read-out; stronger effect = lower value
Out of some 1,300 compounds screened, about 10 (0.8%) were called active. The sample holds actives, similar compounds and a random draw of the others, so the mix is not that of the screen.
Hi there, I'd appreciate the recorded luminescence for every entry that follows.

// solved cases for luminescence follow
CN/C(=C\[N+](=O)[O-])NCCSCc1ccc(CN(C)C)o1 | 2.6e+06 cps (inactive)
C=CC[C@H](N)C(=O)O | 2.5e+06 cps (inactive)
CCn1c(=O)[nH]c2cc(Cl)c(Cl)cc21 | 3.1e+06 cps (inactive)
CCOC(=O)C12CC1/C(=N/O)c1ccccc1O2 (stereo unspecified) | 2.4e+06 cps (inactive)
CCCCOC(=O)NS(=O)(=O)c1sc(CC(C)C)cc1-c1ccc(Cn2c(CC)nc3c(C)cc(C)nc32)cc1 | 2.5e+06 cps (inactive)
NCCCCCCNS(=O)(=O)c1cccc2c(Cl)cccc12 | 2.8e+06 cps (inactive)

I need luminescence for every entry listed below, if you could help.
1. COc1cc(C(O)CO)ccc1O (stereo unspecified)
2. CC1C(=O)N(C)C(=O)c2nc[nH]c21 (stereo unspecified)
3. N.N.N.N.N.N.N.N.N.N.N.N.N.N.O.O.[Cl-].[Cl-].[Cl-].[Cl-].[Cl-].[Cl-].[Ru+4].[Ru+5].[Ru+5]
4. Oc1cc(O)c2c(c1)O[C@H](c1ccc(O)c(O)c1)[C@@H](O)C2
5. NCC(O)C1CCCCCCC1 (stereo unspecified)

1: 2.8e+06 cps (inactive); 2: 2.4e+06 cps (inactive); 3: 2.1e+06 cps (inactive); 4: 2.8e+06 cps (inactive); 5: 2.9e+06 cps (inactive)

----------
Biological target: Chaperone protein DnaK (Escherichia coli (strain K12))
Assay: blockers of bacterial DnaK function – luminescence, E. coli K12, primary screen (AID 547);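 note: tested at 10 µM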
Details: DnaK chaperone assay, luminescence read-out
About 10 (0.8%) of roughly 1,300 compounds were called active. How the calls were made is not given here. The entries come from a sample that favours actives as a whole.
Please answer using one outcome listed in active, inactive

A selection of reference data follows.
CC(C)(C)NCC(O)COc1nsnc1N1CCOCC1 (stereo not given) | inactive
OCc1ccc(-c2nn(Cc3ccccc3)c3ccccc23)o1 | inactive
C[C@]12CCC(=O)C=C1CC[C@@H]1[C@@H]2C(=O)C[C@@]2(C)[C@H]1CC[C@]2(O)C(=O)CO | inactive
CC1(C)C(=O)N(CCN2CCC(C(=O)c3ccc(F)cc3)CC2)c2ccccc21 | inactive
C[C@@H]1C(=O)NC2=Nc3cccc(Cl)c3CN21 | inactive

// outcome(item) with item = O=C(O)c1cc(=O)cc(C(=O)O)[nH]1 inactive

Give the logged outcome of this assay for the following compound: CN1Cc2c(N)cccc2C(c2ccccc2)C1 (stereo not given) inactive

Name the outcome recorded for COCc1nc2c([nH]1)c(=O)n(C)c(=O)n2CC(C)C in the assay. inactive

Test call for this compound, please: CC(C)(C)NCC(O)c1cc(O)cc(O)c1 (stereo not given) inactive

What call does the record list for CCCCCCCCCCCCCCCC(=O)NCC(COP(=O)([O-])OCC[N+](C)(C)C)OCC (stereo not given) ? active

Record lookup: outcome of this test for N#CC(Cc1ccc(O)c(O)c1)C(=O)N1CCc2ccccc21 (stereo not given) ? inactive

Per the records of this test, what outcome belongs to NC12CC3CC(CC(C3)C1)C2 ? inactive

Outcome logged for NCC(O)c1ccc(O)c(O)c1 (stereo not given) in this assay: inactive

Just curious, what result did CN1CCCC1CCOC(C)(c1ccccc1)c1ccc(Cl)cc1 (stereo not given) get here? inactive

Could you please tell me the result logged for O=C(O)/C(=C/c1c(C(=O)O)[nH]c2cc(Cl)cc(Cl)c12)c1ccccc1 in this assay? inactive

# lookup: test call for N=S(=O)(O)Cc1noc2ccccc12 inactive

What outcome does the record of this test show for O=c1n(CCCN2CCN(c3cccc(Cl)c3)CC2)nc2ccccn12 ? inactive

Recorded test call requested for NC[C@@H]1O[C@H](C23CC4CC(CC(C4)C2)C3)Cc2c1ccc(O)c2O inactive

----------
Molecular target: Chaperone protein DnaK (Escherichia coli (strain K12)) (UniProt P0A6Y8)
Test: blockers of bacterial DnaK function – luminescence, E. coli K12, primary screen (AID 547);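 note: tested at 10 µM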
Conditions: DnaK chaperone assay, luminescence read-out; stronger effect = lower value
The whole screen tested about 1,300 compounds, of which about 10 (0.8%) were called active. This is one part of a sample in which actives are shown more often than they occur.
Please respond with reported luminescence for every item in the list.

Past entries and their recorded results:
NC1(C(=O)O)CCc2cc(C(=O)O)ccc21 (centres undefined) | 2.8e+06 cps (inactive)
O=C(O)c1ccccc1Nc1ccccc1 | 2.2e+06 cps (inactive)
CC(N)(Cc1ccc(O)c(O)c1)C(=O)O (centres undefined) | 2.3e+06 cps (inactive)
CN(C)c1nc(N(C)C)nc(N(C)C)n1 | 2.4e+06 cps (inactive)
Fc1ccc([C@@H]2CCNC[C@H]2COc2ccc3c(c2)OCO3)cc1 | 2.9e+06 cps (inactive)

Field: luminescence. Fill in for each record below.
1. C=CCc1ccccc1OCC(O)CNC(C)C (centres undefined)
2. Oc1ccc(O)cc1
3. O=c1[nH]c2cc([N+](=O)[O-])c([N+](=O)[O-])cc2[nH]c1=O

1. 2.8e+06 cps (inactive)
2. 2.9e+06 cps (inactive)
3. 3e+06 cps (inactive)

Record luminescence for all entries; do not skip any.
1. CN=C(NC#N)Nc1ccc(C2=NNC(=O)CC2C)cc1 (centres undefined)
2. c1ccc(-c2ccccn2)nc1
3. O=C(O)c1cc2cc(F)ccc2[nH]1
4. O=C(/C=C/c1ccc(O)c(O)c1)OCCc1ccccc1
5. Nc1ccc(CCNc2ncnc3c2ncn3C2OC(CO)C(O)C2O)cc1 (centres undefined)
6. O=c1cc(O)cc(/C=C/c2ccc(O)c(O)c2)o1

1: 2.6e+06 cps (inactive); 2: 2.6e+06 cps (inactive); 3: 2.1e+06 cps (inactive); 4: 3e+06 cps (inactive); 5: 2.9e+06 cps (inactive); 6: 2.5e+06 cps (inactive)

Hey, quick one: what's luminescence for each of these?
1. Cc1ccccc1N1CCN(S(=O)(=O)C[C@]23CCC(CC2NC(=O)[C@@H](N)CCS(C)(=O)=O)C3(C)C)CC1 (some centres undefined)
2. OCCN1CCN(CCCN2c3ccccc3Sc3ccc(C(F)(F)F)cc32)CC1
3. NC(N)=NCCSSCCN=C(N)N
4. COc1cc2c(cc1OC)-c1cc(=Nc3c(C)cc(C)cc3C)n(C)c(=O)n1CC2

1: 2.6e+06 cps (inactive); 2: 2.6e+06 cps (inactive); 3: 3e+06 cps (inactive); 4: 2.5e+06 cps (inactive)

Answer for every listed entry: what is its luminescence? The entries follow.
1. CC(=O)O[C@H]1CC2(C)[C@@H](C[C@@H](O)[C@H]3[C@@]4(C)CC[C@@H](O)[C@@H](C)[C@@H]4CC[C@@]32C)C1=C(CCC=C(C)C)C(=O)O (some centres undefined)
2. CCCCCCCCCCCCCCCC(=O)NCCO
3. Cc1cn([C@H]2C[C@@H](N=[N+]=[N-])[C@@H](CO)O2)c(=O)[nH]c1=O
4. CC(CCc1ccccc1)NCC(O)c1ccc(O)c(C(N)=O)c1 (centres undefined)
5. Nc1nc(Cl)nc2c1ncn2[C@@H]1O[C@H](CO)[C@H](O)C1O (some centres undefined)

2.8e+06 cps (inactive)
2.9e+06 cps (inactive)
2.8e+06 cps (inactive)
2.8e+06 cps (inactive)
2.7e+06 cps (inactive)
